# System: Escherichia coli TOP10
# PROTOCOL: shrunken log2 fold change of peptide-encoding DNA abundance (4.5 h post-induction vs induction); higher = less antimicrobial activity (less host growth inhibition)
# SETUP_CONDITIONS: time post-induction: 4.5 h; library: site-saturation at positions 5, 18, 19, 20
PARAMETER_MEASURED: shrunken log2 fold change

>  <SEQUENCE_ENTRY>
RRIRHRPPRLPRPRPRPPCKPRP

>  <EXPERIMENTAL_TARGET>
Escherichia coli TOP10

>  <PARAMETER_MEASURED>
shrunken log2 fold change

>  <MEASURED_VALUE>
-0.196

$$$$
>  <SEQUENCE_ENTRY>
RRIRSRPPRLPRPRPRPVHTPRP

>  <EXPERIMENTAL_TARGET>
Escherichia coli TOP10

>  <PARAMETER_MEASURED>
shrunken log2 fold change

>  <MEASURED_VALUE>
0.0158

$$$$
>  <SEQUENCE_ENTRY>
RRIRTRPPRLPRPRPRPIKMPRP

>  <EXPERIMENTAL_TARGET>
Escherichia coli TOP10

>  <PARAMETER_MEASURED>
shrunken log2 fold change

>  <MEASURED_VALUE>
-0.0667

$$$$
>  <SEQUENCE_ENTRY>
RRIRTRPPRLPRPRPRPDIVPRP

>  <EXPERIMENTAL_TARGET>
Escherichia coli TOP10

>  <PARAMETER_MEASURED>
shrunken log2 fold change

>  <MEASURED_VALUE>
-0.0539

$$$$
>  <SEQUENCE_ENTRY>
RRIRCRPPRLPRPRPRPGAIPRP

>  <EXPERIMENTAL_TARGET>
Escherichia coli TOP10

>  <PARAMETER_MEASURED>
shrunken log2 fold change

>  <MEASURED_VALUE>
-0.0334

$$$$
>  <SEQUENCE_ENTRY>
RRIRLRPPRLPRPRPRPAFHPRP

>  <EXPERIMENTAL_TARGET>
Escherichia coli TOP10

>  <PARAMETER_MEASURED>
shrunken log2 fold change

>  <MEASURED_VALUE>
-0.0947

$$$$
>  <SEQUENCE_ENTRY>
RRIRCRPPRLPRPRPRPCADPRP

>  <EXPERIMENTAL_TARGET>
Escherichia coli TOP10

>  <PARAMETER_MEASURED>
shrunken log2 fold change

>  <MEASURED_VALUE>
-0.0836

$$$$
>  <SEQUENCE_ENTRY>
RRIRMRPPRLPRPRPRPHQGPRP

>  <EXPERIMENTAL_TARGET>
Escherichia coli TOP10

>  <PARAMETER_MEASURED>
shrunken log2 fold change

>  <MEASURED_VALUE>
0.013

$$$$
>  <SEQUENCE_ENTRY>
RRIRPRPPRLPRPRPRPEPTPRP

>  <EXPERIMENTAL_TARGET>
Escherichia coli TOP10

>  <PARAMETER_MEASURED>
shrunken log2 fold change

>  <MEASURED_VALUE>
0.416

$$$$
>  <SEQUENCE_ENTRY>
RRIRKRPPRLPRPRPRPNAMPRP

>  <EXPERIMENTAL_TARGET>
Escherichia coli TOP10

>  <PARAMETER_MEASURED>
shrunken log2 fold change

>  <MEASURED_VALUE>
-0.0822

$$$$
>  <SEQUENCE_ENTRY>
RRIRERPPRLPRPRPRPKYGPRP

>  <EXPERIMENTAL_TARGET>
Escherichia coli TOP10

>  <PARAMETER_MEASURED>
shrunken log2 fold change

>  <MEASURED_VALUE>
-0.567

$$$$
>  <SEQUENCE_ENTRY>
RRIRMRPPRLPRPRPRPIYRPRP

>  <EXPERIMENTAL_TARGET>
Escherichia coli TOP10

>  <PARAMETER_MEASURED>
shrunken log2 fold change

>  <MEASURED_VALUE>
-0.0679

$$$$
>  <SEQUENCE_ENTRY>
RRIRDRPPRLPRPRPRPKSAPRP

>  <EXPERIMENTAL_TARGET>
Escherichia coli TOP10

>  <PARAMETER_MEASURED>
shrunken log2 fold change

>  <MEASURED_VALUE>
0.0797

$$$$
>  <SEQUENCE_ENTRY>
RRIRIRPPRLPRPRPRPPIFPRP

>  <EXPERIMENTAL_TARGET>
Escherichia coli TOP10

>  <PARAMETER_MEASURED>
shrunken log2 fold change

>  <MEASURED_VALUE>
-0.0827

$$$$
>  <SEQUENCE_ENTRY>
RRIRIRPPRLPRPRPRPSDWPRP

>  <EXPERIMENTAL_TARGET>
Escherichia coli TOP10

>  <PARAMETER_MEASURED>
shrunken log2 fold change

>  <MEASURED_VALUE>
-0.0413

$$$$
>  <SEQUENCE_ENTRY>
RRIRSRPPRLPRPRPRPPATPRP

>  <EXPERIMENTAL_TARGET>
Escherichia coli TOP10

>  <PARAMETER_MEASURED>
shrunken log2 fold change

>  <MEASURED_VALUE>
0.725

$$$$
>  <SEQUENCE_ENTRY>
RRIRPRPPRLPRPRPRPWVDPRP

>  <EXPERIMENTAL_TARGET>
Escherichia coli TOP10

>  <PARAMETER_MEASURED>
shrunken log2 fold change

>  <MEASURED_VALUE>
0.064

$$$$
>  <SEQUENCE_ENTRY>
RRIRNRPPRLPRPRPRPNIRPRP

>  <EXPERIMENTAL_TARGET>
Escherichia coli TOP10

>  <PARAMETER_MEASURED>
shrunken log2 fold change

>  <MEASURED_VALUE>
-0.103

$$$$
>  <SEQUENCE_ENTRY>
RRIRGRPPRLPRPRPRPPWWPRP

>  <EXPERIMENTAL_TARGET>
Escherichia coli TOP10

>  <PARAMETER_MEASURED>
shrunken log2 fold change

>  <MEASURED_VALUE>
0.953

$$$$
>  <SEQUENCE_ENTRY>
RRIRMRPPRLPRPRPRPRSCPRP

>  <EXPERIMENTAL_TARGET>
Escherichia coli TOP10

>  <PARAMETER_MEASURED>
shrunken log2 fold change

>  <MEASURED_VALUE>
0.274

$$$$
>  <SEQUENCE_ENTRY>
RRIRHRPPRLPRPRPRPECRPRP

>  <EXPERIMENTAL_TARGET>
Escherichia coli TOP10

>  <PARAMETER_MEASURED>
shrunken log2 fold change

>  <MEASURED_VALUE>
0.0764

$$$$
>  <SEQUENCE_ENTRY>
RRIRSRPPRLPRPRPRPFAPPRP

>  <EXPERIMENTAL_TARGET>
Escherichia coli TOP10

>  <PARAMETER_MEASURED>
shrunken log2 fold change

>  <MEASURED_VALUE>
0.314

$$$$
>  <SEQUENCE_ENTRY>
RRIRVRPPRLPRPRPRPDTNPRP

>  <EXPERIMENTAL_TARGET>
Escherichia coli TOP10

>  <PARAMETER_MEASURED>
shrunken log2 fold change

>  <MEASURED_VALUE>
-0.479

$$$$
>  <SEQUENCE_ENTRY>
RRIRARPPRLPRPRPRPYNTPRP

>  <EXPERIMENTAL_TARGET>
Escherichia coli TOP10

>  <PARAMETER_MEASURED>
shrunken log2 fold change

>  <MEASURED_VALUE>
-0.606

$$$$
>  <SEQUENCE_ENTRY>
RRIRSRPPRLPRPRPRPNFPPRP

>  <EXPERIMENTAL_TARGET>
Escherichia coli TOP10;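 further: peptides expressed intracellularly from a pBAD plasmid library in pooled LB shake-flask culture, induced with 0.3% L-arabinose, DNA abundance read by NGS, three biological replicates, DESeq2 with apeglm shrinkage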

>  <PARAMETER_MEASURED>
shrunken log2 fold change

>  <MEASURED_VALUE>
0.0832

$$$$
